B1: EHEE_rd4_0726 (parent)
chain: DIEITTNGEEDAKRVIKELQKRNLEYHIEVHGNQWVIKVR

Variants of: B1
EXPERIMENT SUMMARY: folding stability dG (cDNA display proteolysis); higher = more stable
RECORDED CONDITIONS: PBS, room temperature

# CHAIN, folding stability dG / kcal/mol
data = [
    ("DIEITTNGEEDAKRVIKELQDRNLEYHIEVHGNQWVIKVR [K21D]", 2.3),
    ("DIEITTTGEEDAKRVIKELQKRNLEYHIEVHGNQWVIKVR [N7T]", 2.34),
    ("DIEITTNGEEPAKRVIKELQKRNLEYHIEVHGNQWVIKVR [D11P]", 1.49),
    ("DIEITTNGEEDAKRVIKEAQKRNLEYHIEVHGNQWVIKVR [L19A]", 0.721),
    ("AIEITTNGEEDAKRVIKELQKRNLEYHIEVHGNQWVIKVR [D1A]", 2.34),
    ("DIEIFTNGEEDAKRVIKELQKRNLEYHIEVHGNQWVIKVR [T5F]", 2.77),
    ("DIEITTNGEQDAKRVIKELQKRNLEYHIEVHGNQWVIKVR [E10Q]", 2.16),
    ("DIEITTNGEEDAKRVIKELQKRVLEYHIEVHGNQWVIKVR [N23V]", 1.09),
    ("DIEITTNGEEDAKRVAKELQKRNLEYHIEVHGNQWVIKVR [I16A]", 1.54),
    ("DIEITTNGEEDPKRVIKELQKRNLEYHIEVHGNQWVIKVR [A12P]", -0.076),
    ("DIDITTNGEEDAKRVIKELQKRNLEYHIEVHGNQWVIKVR [E3D]", 1.78),
    ("DIEITTNGEEDAKRVIKELQKRNLEYHIEVHGNQWEIKVR [V36E]", 0.046),
    ("DIEITTNGEEDAKRVIKELQKRNLEYHIEVHGNVWVIKVR [Q34V]", 2.72),
    ("DIEITTNGEEDAKRVIKELQKRNLEYHIEVHGNQWTIKVR [V36T]", 1.77),
    ("DIEITTNGNEDAKRVIKELQKRNLEYHIEVHGNQWVIKVR [E9N]", 1.36),
    ("DIEITTNGEEDAKRVIKELQKRNLEYHIEVHGNQWVIKFR [V39F]", 2.15),
    ("DIEITTNGEEDAKRVIKELQTRNLEYHIEVHGNQWVIKVR [K21T]", 1.91),
]

The reported measurements were obtained from the MegaScale stability set (Tsuboyama et al. 2023).
